Consider the following sequences; for each one, report its binding activity, ERβ and tamoxifen.
# tested on: ERβ (Homo sapiens)
# assay name: Phage ELISA / fingerprint on ER immobilized on biotinylated ERE (Examples 2.3-2.5)
# Format: binding
# Design: purchased PanVera Corporation, Madison, WI; key: semiquantitative scale of 0 to 7+; 1+: semiquantitative scale of 0 to 7+; 2+: semiquantitative scale of 0 to 7+; 3+: semiquantitative scale of 0 to 7+; 4+: semiquantitative scale of 0 to 7+; 5+: semiquantitative scale of 0 to 7+; 6+: semiquantitative scale of 0 to 7+; semiquantitative scale of 0 to 7+
# measurement setup: ERβ and tamoxifen (4-OH tamoxifen, 1 µM)

sequence code	tested on	binding activity, ERβ and tamoxifen
HSWLGPWRLSSIDLGG [Peptide 24b-β]	ERβ (Homo sapiens)	7+
SSIKDFPNLISLLSR [Peptide 12E-β]	ERβ (Homo sapiens)	1+
SRWWLDDHELLLYSSR [Peptide 26E-β]	ERβ (Homo sapiens)	2+

I would be grateful if you could provide binding activity, ERβ and tamoxifen for each of the following entries.
1. SSGSSAGRLMMLLQDGVSR [Peptide 13E-β]
2. SRLPPSVFSMCGSEVCLSR [Peptide 9t-β]
3. SRMFQVCGDEVCLRSR [Peptide 16t-β]
4. SRDWRSGFLYELLSR [Peptide 4E-β]
5. SRLEELLRVGVLTSR [Peptide 6E-β]
6. SSVASREWWVRELSR [Peptide 15t-β]
7. SSKLYCLLDESYCSR [Peptide 21b-β]

1+
7+
7+
3+
1+
7+
3+

Hi! Can you tell me binding activity, ERβ and tamoxifen for each of these sequences?
1. SSLKCLLNSNFCSR [Peptide 18E-β]
2. SREWEDGFGGRWLSR [Peptide 4t-β]
3. SREGWMGPWRLADSR [Peptide 12t-β]
4. SSQVWPGPWRLVESR [Peptide 14b-β]
5. SSSMMREFFERELSR [Peptide 5b-β]

1. 1+
2. 7+
3. 7+
4. 7+
5. 7+

###

# tested on: ERβ (Homo sapiens, UniProt Q92731)
# Sequence (Q92731 whole entry): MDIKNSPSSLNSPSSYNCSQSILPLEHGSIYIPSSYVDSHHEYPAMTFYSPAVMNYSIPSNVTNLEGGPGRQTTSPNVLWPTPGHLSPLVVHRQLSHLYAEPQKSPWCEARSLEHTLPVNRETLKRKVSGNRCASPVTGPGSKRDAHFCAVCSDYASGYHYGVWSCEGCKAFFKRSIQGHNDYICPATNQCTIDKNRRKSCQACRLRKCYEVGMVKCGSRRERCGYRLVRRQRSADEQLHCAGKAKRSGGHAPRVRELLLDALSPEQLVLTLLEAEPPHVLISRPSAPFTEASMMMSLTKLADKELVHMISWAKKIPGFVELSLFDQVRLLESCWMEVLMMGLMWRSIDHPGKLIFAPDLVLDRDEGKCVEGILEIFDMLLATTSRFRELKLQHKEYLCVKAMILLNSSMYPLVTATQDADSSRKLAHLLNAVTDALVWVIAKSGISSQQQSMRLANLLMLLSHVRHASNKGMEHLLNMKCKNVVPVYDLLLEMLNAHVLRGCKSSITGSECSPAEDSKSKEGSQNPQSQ
# assay name: Phage ELISA / fingerprint on ER immobilized on biotinylated ERE (Examples 2.3-2.5)
# Assay type: binding
# Design: purchased PanVera Corporation, Madison, WI; key: semiquantitative scale of 0 to 7+; 1+: semiquantitative scale of 0 to 7+; 2+: semiquantitative scale of 0 to 7+; 3+: semiquantitative scale of 0 to 7+; 4+: semiquantitative scale of 0 to 7+; 5+: semiquantitative scale of 0 to 7+; 6+: semiquantitative scale of 0 to 7+; semiquantitative scale of 0 to 7+
# measurement setup: ERβ and buffer
Would you mind telling me the reported binding activity, ERβ and buffer of each entry?

Look over these answered cases.
sequence code	result
SREGWMGPWRLADSR [Peptide 12t-β]	7+
SRLEDLLRGDSKPQSR [Peptide 7E-β]	5+

For every item below, please supply its binding activity, ERβ and buffer.
1. SSGSSAGRLMMLLQDGVSR [Peptide 13E-β]
2. SSRTPILFSLLETSR [Peptide 11E-β]
3. SSLQAGSWLMHYLRGGDSR [Peptide 23E-β]
4. SSDLYSQMREFFQINLSR [Peptide 23t-β]
5. SREWEDGFGGRWLSR [Peptide 4t-β]
6. SSLKCLLNSNFCSR [Peptide 18E-β]

2+
5+
5+
6+
7+
4+

###

# tested on: ERβ (Homo sapiens, UniProt Q92731)
# assay name: Phage ELISA / fingerprint on ER immobilized on biotinylated ERE (Examples 2.3-2.5)
# Format: binding
# Design: purchased PanVera Corporation, Madison, WI; key: semiquantitative scale of 0 to 7+; 1+: semiquantitative scale of 0 to 7+; 2+: semiquantitative scale of 0 to 7+; 3+: semiquantitative scale of 0 to 7+; 4+: semiquantitative scale of 0 to 7+; 5+: semiquantitative scale of 0 to 7+; 6+: semiquantitative scale of 0 to 7+; semiquantitative scale of 0 to 7+
# measurement setup: ERβ and Estradiol (1 µM)
test readout: binding activity, ERβ and Estradiol

// below: answered sequences
sequence code	binding activity, ERβ and Estradiol
SSRLLCLLDAGQCSR [Peptide 16E-β]	7+
SRHGILWDLLQGDSR [Peptide 2E-β]	7+
SRPGCLRGVWCLADTPPSR [Peptide 20t-β]	6+
SSSMMREFFERELSR [Peptide 5b-β]	6+
SRSPILWHLLQDGSR [Peptide 10E-β]	7+
SSGPWLMHYLGGGSR [Peptide 7b-β]	7+

Value sought for every listed sequence: binding activity, ERβ and Estradiol.
1. SSRGLLWDLLTKDSR [Peptide 1E-β]
2. SRNECIGPWCLTISR [Peptide 13t-β]
3. SSPTGHRLLESLLLNSNSR [Peptide 8E-β]
4. SSWNSREFFLSQLSR [Peptide 5t-β]

["7+", "7+", "7+", "2+"]

###

# tested on: ERα (Homo sapiens, UniProt P03372)
# Sequence (P03372 1-595): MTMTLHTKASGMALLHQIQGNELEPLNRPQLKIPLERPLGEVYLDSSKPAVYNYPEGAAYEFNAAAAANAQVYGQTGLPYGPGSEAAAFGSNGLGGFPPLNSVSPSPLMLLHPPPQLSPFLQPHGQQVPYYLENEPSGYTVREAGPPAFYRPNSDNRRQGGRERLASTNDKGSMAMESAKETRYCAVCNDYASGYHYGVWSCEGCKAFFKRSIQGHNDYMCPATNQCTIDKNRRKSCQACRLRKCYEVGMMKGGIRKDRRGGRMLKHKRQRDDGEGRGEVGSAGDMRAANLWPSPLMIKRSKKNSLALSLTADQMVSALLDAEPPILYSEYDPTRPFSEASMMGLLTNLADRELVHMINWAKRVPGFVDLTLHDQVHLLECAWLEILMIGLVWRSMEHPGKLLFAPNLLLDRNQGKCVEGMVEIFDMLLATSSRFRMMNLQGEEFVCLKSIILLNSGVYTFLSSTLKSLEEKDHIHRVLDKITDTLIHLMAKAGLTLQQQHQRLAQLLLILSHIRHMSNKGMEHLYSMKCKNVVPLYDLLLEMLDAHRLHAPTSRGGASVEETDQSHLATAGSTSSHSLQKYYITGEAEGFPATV
# assay name: Phage ELISA / fingerprint on ER immobilized on biotinylated ERE (Examples 2.3-2.5)
# Type: binding
# Design: purchased PanVera Corporation, Madison, WI; key: semiquantitative scale of 0 to 7+; 1+: semiquantitative scale of 0 to 7+; 2+: semiquantitative scale of 0 to 7+; 3+: semiquantitative scale of 0 to 7+; 4+: semiquantitative scale of 0 to 7+; 5+: semiquantitative scale of 0 to 7+; 6+: semiquantitative scale of 0 to 7+; semiquantitative scale of 0 to 7+
# measurement setup: ERα and buffer
test readout: binding activity, ERα and buffer

sequence code	tested on	result
HSYSSHPLLLSYLWGG [Peptide 23b-β]	ERα (Homo sapiens, UniProt P03372)	3+

Please state binding activity, ERα and buffer for every sequence in the list that follows.
1. SSLQAGSWLMHYLRGGDSR [Peptide 23E-β]
2. HSWLGPWRLSSIDLGG [Peptide 24b-β]
3. SSSLGPWRLSELESR [Peptide 16b-β]
4. SSDLHRDCLGVWCLSR [Peptide 17t-β]
5. SRLHCLLDSSYCSSR [Peptide 1b-β]
6. SRPEGSSWLLHYLSR [Peptide 24E-β]
7. SSRPSFTIPWWFDDPSRSR [Peptide 33E-β]
8. SRLNGVFCHDSSDLWVCSR [Peptide 18t-β]

1. 6+
2. 2+
3. 2+
4. 1+
5. 4+
6. 5+
7. 3+
8. 7+

Fill in binding activity, ERα and buffer for each of the 4 sequences listed.
1. SSQWQAPWWYIDASR [Peptide 32E-β]
2. SSQVWPGPWRLVESR [Peptide 14b-β]
3. SSWNSREFFLSQLSR [Peptide 5t-β]
4. SSTTMFDFFYERLSR [Peptide 6t-β]

5+
2+
3+
4+

Could you report binding activity, ERα and buffer for every entry in the following list?
1. SRMFQVCGDEVCLRSR [Peptide 16t-β]
2. SRLHDLLLRDESPSR [Peptide 3E-β]
3. SSSGPWRWGLSIESR [Peptide 17b-β]

1. 7+
2. 4+
3. 2+

Hi there! I need binding activity, ERα and buffer for each item below, if you can.
1. SSTSWLHHYLMGTSR [Peptide 8b-β]
2. SREGLLMRLLIGDSR [Peptide 14E-β]
3. SSIKDFPNLISLLSR [Peptide 12E-β]

1+
5+
2+

Give binding activity, ERα and buffer for each listed item.
1. SSRCSSLLCEMLIQTKESR [Peptide 22E-β]
2. SSWDFRVPWWYNNSR [Peptide 31E-β]
3. SSGSSAGRLMMLLQDGVSR [Peptide 13E-β]

1. 4+
2. 3+
3. 5+

# batch size: 5; output binding activity, ERα and buffer per entry
1. SSVFTIMDGKVALSR [Peptide 1t-β]
2. SRNECIGPWCLTISR [Peptide 13t-β]
3. SSRTPILFSLLETSR [Peptide 11E-β]
4. SRNLLCLLDQEACSR [Peptide 17E-β]
5. SSLDLSQFPMTASFLRESR [Peptide 35E-β]

["3+", "3+", "6+", "5+", "2+"]

Please state binding activity, ERα and buffer for every sequence in the list that follows.
1. SSSMMREFFERELSR [Peptide 5b-β]
2. SSQEEWLLPWRLASR [Peptide 8t-β]
3. SRHGILWDLLQGDSR [Peptide 2E-β]

1: 6+; 2: 2+; 3: 6+

// for each sequence in input: emit binding activity, ERα and buffer
1. SSTTWRCPEWYCGSR [Peptide 30E-β]
2. SRPGCLRGVWCLADTPPSR [Peptide 20t-β]
3. SSILERLLGGGSAETV [Peptide 9E-β]
4. SRLEELLRVGVLTSR [Peptide 6E-β]
5. SSRLLCLLDAGQCSR [Peptide 16E-β]
6. SSRGLLWDLLTKDSR [Peptide 1E-β]

4+
2+
3+
3+
3+
5+
